Value source: paper PMC8421526

System: U87 cells
SETTINGS: Table S4 C; Figure 3 24 h; peptide added 0.5 µM
EXPERIMENTAL READOUT: 2-Way ANOVA, MTS assay, treatment group compared to untreated

In [3]: df
Out[3]:
                           primary_sequence  target_under_test          meas_value
0  GRKKRRQRRRPPQ [Tat48-60, reference compound]          U87 cells  ns (P > 0.05 – ns)
1                  VLERAKRRAV [AKIP1_27-37]          U87 cells  ns (P > 0.05 – ns)
2               GECTYAGRKRRRPLQK [AHRR8-24]          U87 cells  ns (P > 0.05 – ns)

* * *

System: U87 cells
SETTINGS: Table S4 C; Figure 3 24 h; peptide added 32 µM
Description: The cell proliferation was analyzed with the CellTiter 96® Aqueous Non-Radioactive Cell Proliferation Assay (MTS) (Promega Biotech AB, Sweden) according to the manufacturer’s instructions. […] The absorbance of the formazan product was measured at 490 nm with Tecan Sunrise microplate absorbance reader (Tecan Group Ltd., Switzerland) and the percentage of viable cells was calculated using the GraphPad Prism software 5.0 (GraphPad Software, CA, United States).
EXPERIMENTAL READOUT: 2-Way ANOVA, MTS assay, treatment group compared to untreated

>>> df
                           primary_sequence  target_under_test        meas_value
0                  VLERAKRRAV [AKIP1_27-37]          U87 cells  * (p < 0.05 - *)
1  GRKKRRQRRRPPQ [Tat48-60, reference compound]          U87 cells  * (p < 0.05 - *)
